# target-desc: the molecule itself
# assay-comment: native MS
Listing: stoichiometry N of selected proteins
# print the numeric value only

NAD(P)H-hydrate epimerase (enzyme) ASTVVKYLSQEEAQAVDQELFNEYQFSVDQLMELAGLSCATAIAKAYPPTSMSRSPPTVLVICGPGNNGGDGLVCARHLKLFGYEPTIYYPKRPNKPLFTALVTQCQKMDIPFLGEMPAEPMTIDELYELVVDAIFGFSFKGDVREPFHSILSVLKGLTVPIASIDIPSGWDVEKGNAGGIQPDLLISLTAPKKSATQFTGRYHYLGGRFVPPALEKKYQLNLPPYPDTECVYRLQ    2

Need stoichiometry N, item mitochondrial malate dehydrogenase (enzyme) AKVAVLGASGGIGQPLSLLLKNSPLVSRLTLYDIAHTPGVAADLSHIETKAAVKGYLGPEQLPDCLKGCDVVVIPAGVPRKPGMTRDDLFNTNATIVATLTAACAQHCPEAMICVIANPVNSTIPITAEVFKKHGVYNPNKIFGVTTLDIVRANTFVAELKGLDPARVNVPVIGGHAGKTIIPLISQCTPKVDFPQDQLTALTGRIQEAGTEVVKAKAGAGSATLSMAYAGARFVFSLVDAMNGKEGVVECSFVKSQETECTYFSTPLLLGKKGIEKNLGIGKVSSFEEKMISDAIPELKASIKKGEDFVKTLK
2

Next up: human mitochondrial superoxide dismutase (enzyme) KHSLPDLPYDYGALEPHINAQIMQLHHSKHHAAYVNNLNVTEEKYQEALAKGDVTAQIALQPALKFNGGGHINHSIFWTNLSPNGGGEPKGELLEAIKRDFGSFDKFKEKLTAASVGVQGSGWGWLGFNKERGHLQIAACPNQDPLQGTTGLIPLLGIDVWEHAYYLQYKNVRPDYLKAIWNVINWENVTERYMACKK
4

Next up: 3-hydroxyisobutyrate dehydrogenase (enzyme) ASKTPVGFIGLGNMGNPMAKNLMKHGYPLILYDVFPDVCKEFKEAGEQVASSPAEVAEKADRIITMLPSSMNAVEVYSGANGILKKVKKGSLLIDSSTIDPSVSKELAKEVEKMGAVFMDAPVSGGVGAARSGNLTFMVGGVEDEFAAAQELLECMGSNVVYCGAVGTGQSAKICNNMLLAISMIGTAEAMNLGIRSGLDPKLLAKILNMSSGRCWSSDTYNPVPGVMHGVPSSNNYQGGFGTTLMAKDLGLAQDSATSTKTPILLGSLAHQIYRMMCSKGYSKKDFSSVFQYLREEEPF
4
